# Method Description: Rat 28-day toxicokinetics
# Type: in vivo
# Experimental Setup: both sexes, Sprague-Dawley (Crl:CD (SD)IGS BR), plasma, po, 200 mg/kg/day, 200 mg/kg/day po, day 1, read-out: AUC0-t(last)
Endpoint Name: AUC(0-t)
Just the number plus its unit, please.

// worked examples, AUC(0-t) included
                                   compound  endpoint_name  endpoint_value
0  Cn1c([N+](=O)[O-])cnc1COc1ccc([S+](C)[O-])cc1 (stereo not drawn) [Fexinidazole sulfoxide]       AUC(0-t)   85900 ng·h/mL
1  Cn1c([N+](=O)[O-])cnc1COc1ccc(S(C)(=O)=O)cc1       AUC(0-t)  126000 ng·h/mL

Now, please, on to the next compound.
IN: So what's the measured AUC(0-t) for this one? "CSc1ccc(OCc2ncc([N+](=O)[O-])n2C)cc1"
OUT: 2160 ng·h/mL
